Reported pKd values for the following binders.
Target: T1, hVISTA-ECD 6-His tag (human, UniProt Q9H7M9 33-193)
T1 construct: also called monovalent hVISTA-ECD; human VISTA
T1 sequence (Q9H7M9 other isoform, or with tags, fused parts or gaps limits assumed): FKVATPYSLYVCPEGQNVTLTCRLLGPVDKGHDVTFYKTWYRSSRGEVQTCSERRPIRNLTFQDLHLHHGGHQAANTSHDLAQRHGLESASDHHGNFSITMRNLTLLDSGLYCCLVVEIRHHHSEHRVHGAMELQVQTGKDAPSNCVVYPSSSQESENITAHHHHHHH
Test: SPR 37 C, Ab on Protein A, pH 6.0
pKd: −log10 of the molar value.

# binder, pKd
measured = [
    ("P1-077853 (P1-068744 E31S E102Y) (antibody, V domains shown) VH: QVQLVESGGGVVQPGRSLRLSCAASGFTFSSYAMHWVRQAPGKGLEWVAHIWYDGSNKYEADSVKGRFTISRDNSKNTLYLQMNSLRAEDTAVYYCARDSGFYESYYFDYWGQGTLVTVSS VL: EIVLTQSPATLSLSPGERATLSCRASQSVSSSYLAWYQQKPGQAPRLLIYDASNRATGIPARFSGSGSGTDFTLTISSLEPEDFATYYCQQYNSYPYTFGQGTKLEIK", 7.74),
    ("P1-077839 (P1-068744 E59Y) (antibody, V domains shown) VH: QVQLVESGGGVVQPGRSLRLSCAASGFTFSEYAMHWVRQAPGKGLEWVAHIWYDGSNKYYADSVKGRFTISRDNSKNTLYLQMNSLRAEDTAVYYCARDSGFYESYYFDEWGQGTLVTVSS VL: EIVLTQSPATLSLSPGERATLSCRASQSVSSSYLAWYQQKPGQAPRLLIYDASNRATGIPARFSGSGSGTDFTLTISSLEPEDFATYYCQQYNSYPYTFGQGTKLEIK", 7.07),
]
